Catalogue of remaining at 2 h values
- TEST_METHOD_NOTES: Stability of the compound assessed as compound remaining in 0.1M aqueous phosphate buffer at pH 7.4 incubated for 2 hrs by NMR analysis
- Assay type: physicochemical
- MEASUREMENT_CONDITIONS: read-out: Stability
READOUT_KIND: remaining at 2 h

>>> print(df.to_string())
                         chemical_structure  value
0  COc1ccc(C(=O)OCCc2scc(Cc3cnc(C)nc3N)c2C)cc1  > 90%
1  COc1ccc(C2(NCCc3scc(Cc4cnc(C)nc4N)c3C)COC2)cc1  > 90%
